// data source = paper PMC10786891

# TARGET_UNDER_TEST: T1, EsCas13d, nuclease-dead (Eubacterium siraeum, UniProt B0MS50, R295A;H300A;R849A;H854A)
# T1 sequence: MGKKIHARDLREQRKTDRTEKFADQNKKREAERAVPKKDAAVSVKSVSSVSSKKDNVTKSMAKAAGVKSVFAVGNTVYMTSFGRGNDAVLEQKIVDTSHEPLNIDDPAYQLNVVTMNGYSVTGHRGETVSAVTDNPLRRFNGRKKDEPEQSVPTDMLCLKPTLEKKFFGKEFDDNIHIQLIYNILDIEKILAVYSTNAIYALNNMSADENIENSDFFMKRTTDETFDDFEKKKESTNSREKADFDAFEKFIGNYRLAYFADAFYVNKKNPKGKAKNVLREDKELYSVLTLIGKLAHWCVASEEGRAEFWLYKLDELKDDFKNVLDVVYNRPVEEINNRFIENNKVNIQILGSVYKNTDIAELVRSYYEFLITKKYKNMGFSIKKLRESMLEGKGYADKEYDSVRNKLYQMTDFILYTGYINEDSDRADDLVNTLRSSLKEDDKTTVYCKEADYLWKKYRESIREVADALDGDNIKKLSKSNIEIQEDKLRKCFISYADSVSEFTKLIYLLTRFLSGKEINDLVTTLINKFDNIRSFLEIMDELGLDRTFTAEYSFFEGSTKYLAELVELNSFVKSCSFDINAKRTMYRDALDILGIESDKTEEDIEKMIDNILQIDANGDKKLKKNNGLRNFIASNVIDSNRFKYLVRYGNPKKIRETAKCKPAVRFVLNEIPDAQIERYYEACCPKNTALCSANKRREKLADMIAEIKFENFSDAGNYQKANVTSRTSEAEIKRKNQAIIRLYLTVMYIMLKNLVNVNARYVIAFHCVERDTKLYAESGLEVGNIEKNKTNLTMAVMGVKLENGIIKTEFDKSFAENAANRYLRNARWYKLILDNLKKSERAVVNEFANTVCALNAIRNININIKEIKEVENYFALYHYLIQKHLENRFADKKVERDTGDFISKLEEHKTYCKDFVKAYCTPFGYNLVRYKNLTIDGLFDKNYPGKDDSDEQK
# EXPERIMENTAL_DETAILS: crRNA (strand 1, pre-loaded); Mg2+; 40 mM Tris-HCl pH 7.5, 150 mM NaCl, 6 mM MgCl2, 1 mM DTT, 0.1% Tween-20, 0.2 mg/ml BSA; 25 C; 10 min per concentration, then washed
# REPORTED_CONDITIONS: tags: His6-TwinStrep-SUMO cleaved; N-terminal SNAP kept (SNAP-Surface 488); label: 3' end held by stalled T7 RNA polymerase
READOUT: pKd
Answers are plain numbers, as −log10 of the molar value.

Please review the following examples before continuing.
target 1 del8,del20 (mixed) RNA 1: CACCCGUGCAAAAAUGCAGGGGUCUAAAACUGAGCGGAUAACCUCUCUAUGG RNA 2: GGGAAUGGAUCCACAUCUACGAAUUCGUACCUAGAGAGGUUACCGCUCACCGAGAUCGGAAGAGCACACGU: 7.13
target 3 insU 3' of 5,insA 3' of 1 (mixed) RNA 1: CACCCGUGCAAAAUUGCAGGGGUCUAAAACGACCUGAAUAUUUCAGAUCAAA RNA 2: GGGAAUGGAUCCACAUCUACGAAUUCGUUUUUGAUCUGAAAUAUUCAUGGUCAUGCAGAUCGGAAGAGCACACGU: 7.44
target 2 MT 5'PFS AGC 3'PFS AUA (mixed) RNA 1: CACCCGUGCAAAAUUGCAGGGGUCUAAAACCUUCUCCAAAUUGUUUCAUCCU RNA 2: GGGAAUGGAUCCACAUCUACGAAUUCAGCAGGAUGAAACAAUUUGGAGAAGAUAAGAUCGGAAGAGCACACGU: 8.15
target 2 MT 5'PFS UAA 3'PFS AAU (mixed) RNA 1: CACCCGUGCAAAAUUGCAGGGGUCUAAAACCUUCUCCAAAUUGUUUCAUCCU RNA 2: GGGAAUGGAUCCACAUCUACGAAUUCUAAAGGAUGAAACAAUUUGGAGAAGAAUAGAUCGGAAGAGCACACGU: 8.33

Value sought for every listed binder: pKd.
1. target 1 MT 5'PFS GCU 3'PFS UAA (mixed) RNA 1: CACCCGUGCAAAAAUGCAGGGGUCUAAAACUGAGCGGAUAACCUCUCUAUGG RNA 2: GGGAAUGGAUCCACAUCUACGAAUUCGCUCCAUAGAGAGGUUAUCCGCUCAUAAAGAUCGGAAGAGCACACGU
2. target 1 MT 5'PFS GUC 3'PFS AAU (mixed) RNA 1: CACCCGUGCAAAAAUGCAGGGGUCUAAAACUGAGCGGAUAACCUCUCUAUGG RNA 2: GGGAAUGGAUCCACAUCUACGAAUUCGUCCCAUAGAGAGGUUAUCCGCUCAAAUAGAUCGGAAGAGCACACGU
3. target 1 del7,del19 (mixed) RNA 1: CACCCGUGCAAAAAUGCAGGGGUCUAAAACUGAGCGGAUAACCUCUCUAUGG RNA 2: GGGAAUGGAUCCACAUCUACGAAUUCGUACCAAGAGAGGUUAUCGCUCACCGAGAUCGGAAGAGCACACGU

Output:
[7.31, 7.59, 7.28]
